Source listed as paper PMC6156383.

System: MOP receptor (Homo sapiens, UniProt P35372) | Read-out: pEC50
Sequence (P35372 whole entry): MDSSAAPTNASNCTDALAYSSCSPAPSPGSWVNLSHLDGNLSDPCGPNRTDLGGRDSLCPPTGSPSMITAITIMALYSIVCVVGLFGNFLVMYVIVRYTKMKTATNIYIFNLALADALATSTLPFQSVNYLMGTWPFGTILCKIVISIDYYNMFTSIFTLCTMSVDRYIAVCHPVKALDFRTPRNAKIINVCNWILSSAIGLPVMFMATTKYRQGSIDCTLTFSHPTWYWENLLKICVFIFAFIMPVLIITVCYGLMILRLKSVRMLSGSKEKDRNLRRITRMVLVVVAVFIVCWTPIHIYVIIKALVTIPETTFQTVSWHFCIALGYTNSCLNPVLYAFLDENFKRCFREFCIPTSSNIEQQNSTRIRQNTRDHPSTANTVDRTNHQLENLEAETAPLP
In simple prose, pEC50 is minus the logarithm base ten of a concentration in moles per litre.

For O=C(Cc1ccccc1)O[C@@]12CCC(=O)[C@@H]3Oc4c(O)ccc5c4[C@@]31CCN(CC1CC1)[C@@H]2C5 [Compound 7a] , what is its reported pEC50?
8.42

Which value of pEC50 has been reported for Cc1cccc(CC(=O)O[C@@]23CCC(=O)[C@@H]4Oc5c(O)ccc6c5[C@@]42CCN(CC2CC2)[C@@H]3C6)c1 [Compound 7d] in the records?
8.28

Quick one: pEC50 for Cc1ccccc1CC(=O)O[C@@]12CCC(=O)[C@@H]3Oc4c(O)ccc5c4[C@@]31CCN(CC1CC1)[C@@H]2C5 [Compound 7c] ?
8.66

Entry COc1ccccc1CC(=O)O[C@@]12CCC(=O)[C@@H]3Oc4c(O)ccc5c4[C@@]31CCN(CC1CC1)[C@@H]2C5 [Compound 7h] has what pEC50?
9.30

Give the measured pEC50 of Cc1ccc(CC(=O)O[C@@]23CCC(=O)[C@@H]4Oc5c(O)ccc6c5[C@@]42CCN(CC2CC2)[C@@H]3C6)cc1 [Compound 7b] .
8.80

Value lookup for pEC50; key = O=C(Cc1ccccc1F)O[C@@]12CCC(=O)[C@@H]3Oc4c(O)ccc5c4[C@@]31CCN(CC1CC1)[C@@H]2C5 [Compound 7i]
8.70

Requested field: pEC50. Item: COc1cccc(CC(=O)O[C@@]23CCC(=O)[C@@H]4Oc5c(O)ccc6c5[C@@]42CCN(CC2CC2)C3C6)c1 [Compound 7e]
7.88

Which pEC50 reading was recorded for the molecule O=C(Cc1ccccc1Cl)O[C@@]12CCC(=O)[C@@H]3Oc4c(O)ccc5c4[C@@]31CCN(CC1CC1)[C@@H]2C5 [Compound 7k] ?
8.62
